target_or_system: T1, human protein C (human, UniProt P04070 43-461)
T1 construct: Zymogen form, coated on ELISA plates; also called hPC; PC
test_details: ELISA, plate coated with hPC 1 ug/mL, anti-hIgG-Fc-HRP
Span: recorded values

binder	Span
HAPC-14-1 (antibody, V domains shown, Whole IgG, backbone hIgG1; also called HPAC14-1) VH: EVQLVESGGGLVQPGGSLRLSCAASGFTFSFYYLNWVRQAPGKGLEWVGDIRLKSNNYEKHYAESVKGRFTISRDDSKSITYLQMNSLRAEDTAVYYCAREGDYFDYWGQGTTVTVSS VL: DIQLTQSPSSLSASVGDRVTITCRASESVDSFGATFMHWYQQKPGKAPKLLIYLASWLGSGVPSRFSGSGSGTDFTLTISSLQPEDFATYYCQQNNEDPYTFGQGTKLEIK	0.023
HAPC-14-2 (antibody, V domains shown, Whole IgG, backbone hIgG1; also called HPAC 14-2) VH: EVQLVESGGGLVQPGGSLRLSCAASGFTFSFYYLNWVRQAPGKGLEWVGDIRLKKNNYEKHYAESVKGRFTISRDDSKSITYLQMNSLRAEDTAVYYCAREGDYFDYWGQGTTVTVSS VL: DIQLTQSPSSLSASVGDRVTITCRASESVDSFGATFMHWYQQKPGKAPKLLIYLASWLESGVPSRFSGSGSGTDFTLTISSLQPEDFATYYCVQNNEDPYTFGQGTKLEIK	0.0104
HAPC-14-8 (antibody, V domains shown, Whole IgG, backbone hIgG1; also called HPAC 14-8) VH: EVQLVESGGGLVQPGGSLRLSCAASGFTFSFYYLNWVRQAPGKGLEWVGDIRLKKNNYEKHYAESVKGRFTISRDDSKSITYLQMNSLRAEDTAVYYCAREGDTFDYWGQGTTVTVSS VL: DIQLTQSPSSLSASVGDRVTITCRASESVDSFGATFMHWYQQKPGKAPKLLIYLASRLGSGVPSRFSGSGSGTDFTLTISSLQPEDFATYYCVQNNEDPYTFGQGTKLEIK	-0.00465
